biological target: MAP kinase p38 (Homo sapiens) (UniProt O15264+Q15759+Q16539+P53778); test: Binding affinity to p38 (unknown origin) assessed as change in melting temperature at 1 uM by SYPRO orange dye-based DSF analysis; type: protein assay
Classification field: label 1 = ΔTm at or over 2 °C; label 0 = ΔTm under 2 °C.

[
  {
    "molecule": "O=C(O)c1cc(-c2ccc(-c3ccccc3[N+](=O)[O-])o2)nc2ccc3ccccc3c12",
    "discrete.label": "label 0"
  },
  {
    "molecule": "Cc1ccc(C(=O)CSc2nnc(-c3ccncc3)[nH]2)c(C)c1",
    "discrete.label": "label 0"
  },
  {
    "molecule": "O=C(NCC1COc2ccccc2O1)c1ccc(NC(=O)c2ccco2)cc1 (stereo not drawn)",
    "discrete.label": "label 1"
  },
  {
    "molecule": "CCC(=O)Nc1nc(C)c(-c2csc(Nc3cc(OC)ccc3OC)n2)s1",
    "discrete.label": "label 1"
  },
  {
    "molecule": "Cc1ccc(NCCCC(=O)N/N=C/c2cc(Br)cc(Br)c2O)cc1",
    "discrete.label": "label 0"
  }
]

----------
target: Serine/threonine-protein kinase TAO2 (Homo sapiens) (UniProt Q9UL54); experiment: Inhibition of TAOK2 in human U2OS cells assessed as inhibition of cellular autophagy measured as P62 accumulation at 50 uM after 24 hrs by western blot analysis; format: cell-based
Sequence (Q9UL54 whole entry): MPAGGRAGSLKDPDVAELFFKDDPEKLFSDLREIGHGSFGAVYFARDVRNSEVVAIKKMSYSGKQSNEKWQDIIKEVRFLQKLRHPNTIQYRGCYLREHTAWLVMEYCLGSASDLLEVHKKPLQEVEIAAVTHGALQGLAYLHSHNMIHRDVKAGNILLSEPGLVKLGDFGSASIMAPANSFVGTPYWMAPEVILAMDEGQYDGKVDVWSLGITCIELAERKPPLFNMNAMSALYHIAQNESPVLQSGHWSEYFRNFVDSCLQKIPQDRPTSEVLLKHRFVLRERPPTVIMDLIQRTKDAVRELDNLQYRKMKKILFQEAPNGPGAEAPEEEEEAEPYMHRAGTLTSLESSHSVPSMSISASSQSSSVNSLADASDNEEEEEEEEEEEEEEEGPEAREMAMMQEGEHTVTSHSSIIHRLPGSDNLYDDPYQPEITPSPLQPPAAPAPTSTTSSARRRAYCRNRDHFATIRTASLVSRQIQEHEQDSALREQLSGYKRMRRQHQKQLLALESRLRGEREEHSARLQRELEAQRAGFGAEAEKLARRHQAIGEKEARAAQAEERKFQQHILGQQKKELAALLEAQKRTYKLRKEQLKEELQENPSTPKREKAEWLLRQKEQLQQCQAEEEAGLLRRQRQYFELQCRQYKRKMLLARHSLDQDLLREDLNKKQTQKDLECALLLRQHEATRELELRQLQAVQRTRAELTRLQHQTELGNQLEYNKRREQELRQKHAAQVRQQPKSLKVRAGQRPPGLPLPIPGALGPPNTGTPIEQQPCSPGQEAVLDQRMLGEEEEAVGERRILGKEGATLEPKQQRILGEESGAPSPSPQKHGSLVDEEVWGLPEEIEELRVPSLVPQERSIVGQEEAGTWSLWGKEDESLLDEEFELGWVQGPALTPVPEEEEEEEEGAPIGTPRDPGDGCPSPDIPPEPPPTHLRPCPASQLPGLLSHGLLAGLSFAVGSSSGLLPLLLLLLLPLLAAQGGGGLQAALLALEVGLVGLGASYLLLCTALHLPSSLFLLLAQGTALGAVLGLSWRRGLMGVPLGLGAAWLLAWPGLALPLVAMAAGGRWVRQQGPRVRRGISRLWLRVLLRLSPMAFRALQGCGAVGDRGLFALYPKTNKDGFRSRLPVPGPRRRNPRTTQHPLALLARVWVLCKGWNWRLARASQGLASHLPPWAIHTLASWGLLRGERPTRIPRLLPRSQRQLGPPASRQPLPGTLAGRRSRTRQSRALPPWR
The source made the active and inactive calls. The calls are words filed in the database; no cut-off is given here.
Labels: True = active, False = inactive

[
  {
    "compound": "O=C(Nc1cccc(-c2nc3ccccc3c(=O)o2)c1)c1ccccc1Br",
    "discrete.label": "True"
  },
  {
    "compound": "O=C(NCC1COc2ccccc2O1)c1ccc(NC(=O)c2ccco2)cc1 (stereo not given)",
    "discrete.label": "True"
  },
  {
    "compound": "CS(=O)(=O)c1ccc2nc(NC(=O)CCCOc3ccc(Cl)cc3)sc2c1",
    "discrete.label": "True"
  },
  {
    "compound": "CCOCCCn1c(=S)[nH]c2cc(C(=O)NCC3COc4ccccc4O3)ccc2c1=O (stereo not given)",
    "discrete.label": "True"
  },
  {
    "compound": "CCC(=O)Nc1nc(C)c(-c2csc(Nc3cc(OC)ccc3OC)n2)s1",
    "discrete.label": "False"
  }
]

----------
biological target: Serine/threonine-protein kinase TAO2 (Rattus norvegicus, UniProt Q9JLS3); test: Inhibition of rat TAOK2 (1 to 320 residues) expressed in Baculovirus/insect cell expression system assessed as remaining activity using MBP as substrate and [32P]ATP measured after 10 mins by Kinase-Glo assay
Sequence (Q9JLS3 whole entry, the tested form may be a part): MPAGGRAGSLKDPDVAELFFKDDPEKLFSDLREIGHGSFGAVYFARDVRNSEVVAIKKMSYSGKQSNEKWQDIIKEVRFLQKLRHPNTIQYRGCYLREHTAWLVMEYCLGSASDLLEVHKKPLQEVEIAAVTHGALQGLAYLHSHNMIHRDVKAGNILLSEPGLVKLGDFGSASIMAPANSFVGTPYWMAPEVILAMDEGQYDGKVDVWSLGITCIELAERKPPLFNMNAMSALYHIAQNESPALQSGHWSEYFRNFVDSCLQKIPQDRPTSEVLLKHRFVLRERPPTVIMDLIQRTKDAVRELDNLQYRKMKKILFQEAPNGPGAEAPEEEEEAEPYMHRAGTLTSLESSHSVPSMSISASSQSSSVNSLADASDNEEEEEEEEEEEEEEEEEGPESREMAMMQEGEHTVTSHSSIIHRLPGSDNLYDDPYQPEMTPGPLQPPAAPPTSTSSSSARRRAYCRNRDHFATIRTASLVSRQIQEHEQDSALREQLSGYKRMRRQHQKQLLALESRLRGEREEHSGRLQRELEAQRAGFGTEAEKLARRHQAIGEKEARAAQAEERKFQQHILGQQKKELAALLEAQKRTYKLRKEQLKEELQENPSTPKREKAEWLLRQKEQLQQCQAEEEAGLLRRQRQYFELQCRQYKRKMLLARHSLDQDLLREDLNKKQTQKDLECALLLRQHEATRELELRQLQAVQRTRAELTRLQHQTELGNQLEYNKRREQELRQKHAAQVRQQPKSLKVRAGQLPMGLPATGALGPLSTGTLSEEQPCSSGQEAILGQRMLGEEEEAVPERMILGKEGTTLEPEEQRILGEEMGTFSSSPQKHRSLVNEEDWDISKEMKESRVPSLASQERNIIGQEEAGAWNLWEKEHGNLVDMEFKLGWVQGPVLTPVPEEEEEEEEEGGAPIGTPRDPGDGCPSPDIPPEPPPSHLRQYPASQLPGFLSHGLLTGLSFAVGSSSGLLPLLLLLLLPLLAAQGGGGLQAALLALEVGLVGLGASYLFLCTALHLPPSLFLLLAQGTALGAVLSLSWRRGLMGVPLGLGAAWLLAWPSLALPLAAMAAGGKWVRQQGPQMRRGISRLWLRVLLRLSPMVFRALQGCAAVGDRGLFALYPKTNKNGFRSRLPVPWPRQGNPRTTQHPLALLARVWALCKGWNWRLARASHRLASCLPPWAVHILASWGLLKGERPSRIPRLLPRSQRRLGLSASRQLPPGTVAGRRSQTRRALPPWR

[
  {
    "compound": "CCC(=O)Nc1nc(C)c(-c2csc(Nc3cccc(O)c3)n2)s1",
    "unit.abbrev": "nM",
    "IC50": 1000
  },
  {
    "compound": "CCC(=O)Nc1nc(C)c(-c2csc(Nc3cccc(C(=O)O)c3)n2)s1",
    "unit.abbrev": "nM",
    "IC50": 1700
  },
  {
    "compound": "Cc1nc(N)sc1-c1csc(Nc2ccc([N+](=O)[O-])cc2)n1",
    "unit.abbrev": "nM",
    "IC50": 1000
  },
  {
    "compound": "CC(=O)Nc1nc(C)c(-c2csc(Nc3ccc(Br)cc3)n2)s1",
    "unit.abbrev": "nM",
    "IC50": 1000
  },
  {
    "compound": "COc1ccc(OC)c(Nc2nc(-c3sc(N)nc3C)cs2)c1",
    "unit.abbrev": "nM",
    "IC50": 1000
  },
  {
    "compound": "Cc1nc(NC(=O)c2ccccc2)sc1-c1csc(Nc2ccc(S(N)(=O)=O)cc2)n1",
    "unit.abbrev": "nM",
    "IC50": 800
  },
  {
    "compound": "Cc1nc(N)sc1-c1csc(Nc2cccc(O)c2)n1",
    "unit.abbrev": "nM",
    "IC50": 1400
  },
  {
    "compound": "CCC(=O)Nc1nc(C)c(-c2csc(Nc3ccc(O)cc3)n2)s1",
    "unit.abbrev": "nM",
    "IC50": 1600
  },
  {
    "compound": "CCC(=O)Nc1nc(C)c(-c2csc(Nc3ccc(S(N)(=O)=O)cc3)n2)s1",
    "unit.abbrev": "nM",
    "IC50": 1000
  },
  {
    "compound": "CN1c2ccc(S(C)(=O)=O)cc2SC1NC(=O)CCCc1ccccc1 (stereo unspecified)",
    "unit.abbrev": "nM",
    "IC50": 1700
  }
]

----------
target: Serine/threonine-protein kinase TAO2 (Rattus norvegicus, UniProt Q9JLS3); assay: Inhibition of rat TAOK2 (1 to 320 residues) expressed in Baculovirus/insect cell expression system using MBP as substrate measured after 10 mins in presence of [32P]ATP by radiometric assay

[
  {
    "smiles.input": "CCC(=O)Nc1nc(C)c(-c2csc(Nc3cc(OC)ccc3OC)n2)s1",
    "IC50": "300 nM"
  }
]

----------
biological target: Mitogen-activated protein kinase kinase kinase 5 (Homo sapiens) (UniProt Q99683); experiment: Binding affinity to ASK1 (unknown origin) assessed as change in melting temperature at 1 uM by SYPRO orange dye-based DSF analysis
Sequence (Q99683 whole entry): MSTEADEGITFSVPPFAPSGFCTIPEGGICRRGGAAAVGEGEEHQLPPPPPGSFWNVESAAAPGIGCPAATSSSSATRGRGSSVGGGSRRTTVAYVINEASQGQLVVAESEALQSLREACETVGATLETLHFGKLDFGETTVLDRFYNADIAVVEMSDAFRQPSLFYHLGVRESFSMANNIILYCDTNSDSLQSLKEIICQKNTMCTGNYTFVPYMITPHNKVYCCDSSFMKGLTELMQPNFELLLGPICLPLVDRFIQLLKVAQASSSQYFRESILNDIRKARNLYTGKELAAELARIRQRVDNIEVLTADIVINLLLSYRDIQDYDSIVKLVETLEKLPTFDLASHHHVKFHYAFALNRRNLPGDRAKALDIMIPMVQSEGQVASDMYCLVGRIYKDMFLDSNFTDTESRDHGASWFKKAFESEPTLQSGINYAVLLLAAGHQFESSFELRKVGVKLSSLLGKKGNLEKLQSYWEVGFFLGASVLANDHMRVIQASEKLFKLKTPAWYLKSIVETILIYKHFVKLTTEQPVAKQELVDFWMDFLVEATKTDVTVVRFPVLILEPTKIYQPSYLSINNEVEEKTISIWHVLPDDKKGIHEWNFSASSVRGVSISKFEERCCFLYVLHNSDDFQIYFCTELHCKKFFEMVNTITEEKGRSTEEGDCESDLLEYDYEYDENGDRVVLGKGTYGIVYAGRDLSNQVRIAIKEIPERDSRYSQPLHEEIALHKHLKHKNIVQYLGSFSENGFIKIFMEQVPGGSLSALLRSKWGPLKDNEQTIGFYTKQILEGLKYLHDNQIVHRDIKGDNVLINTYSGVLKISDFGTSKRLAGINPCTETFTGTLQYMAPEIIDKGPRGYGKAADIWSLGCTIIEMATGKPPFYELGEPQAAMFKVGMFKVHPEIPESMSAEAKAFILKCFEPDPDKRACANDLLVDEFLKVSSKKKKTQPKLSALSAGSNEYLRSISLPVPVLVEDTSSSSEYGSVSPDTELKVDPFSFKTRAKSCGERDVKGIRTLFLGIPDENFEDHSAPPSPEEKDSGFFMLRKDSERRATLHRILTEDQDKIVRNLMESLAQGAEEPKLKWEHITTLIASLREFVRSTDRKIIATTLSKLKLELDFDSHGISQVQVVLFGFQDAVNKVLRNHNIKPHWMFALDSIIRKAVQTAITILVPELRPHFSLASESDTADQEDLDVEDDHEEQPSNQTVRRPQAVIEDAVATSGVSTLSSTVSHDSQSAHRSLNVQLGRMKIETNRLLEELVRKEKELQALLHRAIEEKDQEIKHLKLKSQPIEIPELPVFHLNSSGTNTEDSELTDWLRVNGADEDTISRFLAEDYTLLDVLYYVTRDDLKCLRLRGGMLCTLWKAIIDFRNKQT
Listing of entries alongside the reported ΔTm.
measured.property: ΔTm (°C)

[
  {
    "molecule": "Cc1ccc(NCCCC(=O)N/N=C/c2cc(Br)cc(Br)c2O)cc1",
    "measured.property": "ΔTm",
    "unit.abbrev": "°C",
    "test.value": 1.2
  },
  {
    "molecule": "c1cc2[nH]c3c(c2c2nonc12)CCCC3",
    "measured.property": "ΔTm",
    "unit.abbrev": "°C",
    "test.value": 0
  },
  {
    "molecule": "CCOCCCn1c(=S)[nH]c2cc(C(=O)NCC3COc4ccccc4O3)ccc2c1=O (stereo not drawn)",
    "measured.property": "ΔTm",
    "unit.abbrev": "°C",
    "test.value": 2.1
  },
  {
    "molecule": "CCC(=O)Nc1nc(C)c(-c2csc(Nc3cc(OC)ccc3OC)n2)s1",
    "measured.property": "ΔTm",
    "unit.abbrev": "°C",
    "test.value": 2.7
  },
  {
    "molecule": "O=C(NCC1COc2ccccc2O1)c1ccc(NC(=O)c2ccco2)cc1 (stereo not drawn)",
    "measured.property": "ΔTm",
    "unit.abbrev": "°C",
    "test.value": 1.2
  },
  {
    "molecule": "CS(=O)(=O)c1ccc2nc(NC(=O)CCCOc3ccc(Cl)cc3)sc2c1",
    "measured.property": "ΔTm",
    "unit.abbrev": "°C",
    "test.value": 1.2
  },
  {
    "molecule": "O=C(O)c1cc(-c2ccc(-c3ccccc3[N+](=O)[O-])o2)nc2ccc3ccccc3c12",
    "measured.property": "ΔTm",
    "unit.abbrev": "°C",
    "test.value": 1.7
  },
  {
    "molecule": "Cc1ccc(C(=O)CSc2nnc(-c3ccncc3)[nH]2)c(C)c1",
    "measured.property": "ΔTm",
    "unit.abbrev": "°C",
    "test.value": 0.4
  }
]

----------
Listing of entries alongside the reported IC50.
target: Serine/threonine-protein kinase TAO2 (Rattus norvegicus, UniProt Q9JLS3); assay: Inhibition of rat TAOK2 (1 to 320 residues) expressed in Baculovirus/insect cell expression system assessed as remaining activity using MBP as substrate and [32P]ATP measured after 10 mins by Kinase-Glo assay

[
  {
    "compound": "CCC(=O)Nc1nc(C)c(-c2csc(Nc3ccc([N+](=O)[O-])cc3)n2)s1",
    "IC50 / nM": 1000
  },
  {
    "compound": "c1cc2[nH]c3c(c2c2nonc12)CCCC3",
    "IC50 / nM": 3000
  },
  {
    "compound": "CC(=O)Nc1nc(C)c(-c2csc(Nc3ccc([N+](=O)[O-])cc3)n2)s1",
    "IC50 / nM": 10000
  },
  {
    "compound": "CN1c2ccc(S(C)(=O)=O)cc2SC1NC(=O)/C=C/c1ccc(F)cc1 (configuration not stated)",
    "IC50 / nM": 800
  },
  {
    "compound": "O=C(O)c1cc(-c2ccc(-c3ccccc3[N+](=O)[O-])o2)nc2ccc3ccccc3c12",
    "IC50 / nM": 3000
  },
  {
    "compound": "CCC(=O)Nc1nc(C)c(-c2csc(Nc3cccc([N+](=O)[O-])c3)n2)s1",
    "IC50 / nM": 1000
  },
  {
    "compound": "O=C(NCCSCc1ccccc1)c1ccc2c(=O)n(C3CCCCC3)c(=S)[nH]c2c1",
    "IC50 / nM": 1900
  },
  {
    "compound": "CC(=O)Nc1nc(C)c(-c2csc(Nc3ccc(O)cc3)n2)s1",
    "IC50 / nM": 3800
  },
  {
    "compound": "CCOc1ccccc1Nc1nc(-c2sc(NC(C)=O)nc2C)cs1",
    "IC50 / nM": 1600
  },
  {
    "compound": "Cc1nc(N)sc1-c1csc(Nc2cccc(Cl)c2)n1",
    "IC50 / nM": 3100
  },
  {
    "compound": "Cc1cccc(Nc2nc(-c3sc(N)nc3C)cs2)c1",
    "IC50 / nM": 1700
  },
  {
    "compound": "Cc1nc(N)sc1-c1csc(Nc2ccc(S(N)(=O)=O)cc2)n1",
    "IC50 / nM": 1400
  },
  {
    "compound": "Cc1ccc(C(=O)CSc2nnc(-c3ccncc3)[nH]2)c(C)c1",
    "IC50 / nM": 5000
  },
  {
    "compound": "CC(=O)Nc1nc(C)c(-c2csc(Nc3cccc(C(C)=O)c3)n2)s1",
    "IC50 / nM": 12000
  },
  {
    "compound": "CCC(=O)Nc1nc(C)c(-c2csc(Nc3ccc(NC(C)=O)cc3)n2)s1",
    "IC50 / nM": 1900
  },
  {
    "compound": "Cc1cccc(NC(=S)N/N=C/c2c[nH]c3ccccc23)c1",
    "IC50 / nM": 1000
  },
  {
    "compound": "CCOc1ccccc1Nc1nc(-c2sc(NC(=O)CC)nc2C)cs1",
    "IC50 / nM": 600
  },
  {
    "compound": "CC(=O)Nc1nc(C)c(-c2csc(Nc3ccccc3C)n2)s1",
    "IC50 / nM": 1800
  },
  {
    "compound": "CCC(=O)Nc1nc(C)c(-c2csc(Nc3ccc(N(CC)CC)cc3)n2)s1",
    "IC50 / nM": 2700
  },
  {
    "compound": "COc1ccccc1Nc1nc(-c2sc(NC(C)=O)nc2C)cs1",
    "IC50 / nM": 2100
  },
  {
    "compound": "CCN(CC)c1ccc(Nc2nc(-c3sc(NC(C)=O)nc3C)cs2)cc1",
    "IC50 / nM": 1700
  },
  {
    "compound": "CN1c2ccc(S(C)(=O)=O)cc2SC1NC(=O)CC1CCC(Br)CC1 (configuration not stated)",
    "IC50 / nM": 1400
  }
]

The reported measurements were obtained from ChEMBL document CHEMBL4477233.
